Each item that follows carries a reported pKi.
System Under Test: TcdB-GTD (Clostridioides difficile, UniProt P18177)
Construct: C-terminal His-6 tagged TcdB-GTD (amino acids 1-546); His6 (C); made in house; host or cells: Escherichia coli One Shot BL21 Star (DE3)
Sequence (P18177 1-546 limits assumed): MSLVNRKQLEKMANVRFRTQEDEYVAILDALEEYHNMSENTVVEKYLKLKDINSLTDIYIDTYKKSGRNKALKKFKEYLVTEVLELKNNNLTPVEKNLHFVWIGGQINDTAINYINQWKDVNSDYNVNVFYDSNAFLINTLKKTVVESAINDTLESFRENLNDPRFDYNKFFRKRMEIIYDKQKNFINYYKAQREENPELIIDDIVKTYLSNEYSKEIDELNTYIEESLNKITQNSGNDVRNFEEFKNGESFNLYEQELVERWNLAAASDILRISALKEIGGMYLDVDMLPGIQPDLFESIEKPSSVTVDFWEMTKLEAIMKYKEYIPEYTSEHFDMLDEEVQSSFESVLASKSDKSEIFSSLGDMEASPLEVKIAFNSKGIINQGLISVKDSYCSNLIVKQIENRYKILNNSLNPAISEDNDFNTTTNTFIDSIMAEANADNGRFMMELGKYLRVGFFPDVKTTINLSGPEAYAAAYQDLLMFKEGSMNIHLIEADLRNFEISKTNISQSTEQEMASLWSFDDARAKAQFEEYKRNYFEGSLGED
Procedure Details: biochemical
Set-up: species or system Clostridium difficile
Study Conditions: Ki TcdB-GTD glucohydrolase activity
// scale note: pKi = -log10(conc_M); give the bare number

- Compound: "OC[C@H]1CNC(O)[C@@H](O)[C@@H]1O (stereo partly drawn)"
  Readout Value: 4.92
- Compound: "OC[C@H]1CNC[C@@H](O)[C@@H]1O"
  Readout Value: 5.32
- Compound: "O[C@H]1[C@H](O)[C@@H](O)CN2CC[C@H](O)[C@H]12"
  Readout Value: 2.47

From here, focus on the item given below.
Here O=C1O[C@H](CO)[C@@H](O)[C@H](O)[C@H]1O was tested on TcdB-GTD (Clostridioides difficile, UniProt P18177), and its pKi came to 3.38
